conditions: 306.2 K; Liquid; Transpiration method
Provide the recorded vapor or sublimation pressure for the entries that follow.
Numbers only here, please. The scale is kPa.

## Input Tell me vapor or sublimation pressure reported for `Cc1ccc(OCC(C)C)c(Br)c1`
## Output 0.00213

## Input Tell me vapor or sublimation pressure reported for `CC(C)COc1cccc(Br)c1`
## Output 0.00607

## Input Tell me vapor or sublimation pressure reported for `CC(C)COc1ccc(Br)cc1`
## Output 0.0048

## Input Tell me vapor or sublimation pressure reported for `CC(C)COc1ccccc1Br`
## Output 0.00634
